// provenance: ChEMBL document CHEMBL1151086

# system.name: UniProtKB Q02769
# Sequence (Q02769 whole entry): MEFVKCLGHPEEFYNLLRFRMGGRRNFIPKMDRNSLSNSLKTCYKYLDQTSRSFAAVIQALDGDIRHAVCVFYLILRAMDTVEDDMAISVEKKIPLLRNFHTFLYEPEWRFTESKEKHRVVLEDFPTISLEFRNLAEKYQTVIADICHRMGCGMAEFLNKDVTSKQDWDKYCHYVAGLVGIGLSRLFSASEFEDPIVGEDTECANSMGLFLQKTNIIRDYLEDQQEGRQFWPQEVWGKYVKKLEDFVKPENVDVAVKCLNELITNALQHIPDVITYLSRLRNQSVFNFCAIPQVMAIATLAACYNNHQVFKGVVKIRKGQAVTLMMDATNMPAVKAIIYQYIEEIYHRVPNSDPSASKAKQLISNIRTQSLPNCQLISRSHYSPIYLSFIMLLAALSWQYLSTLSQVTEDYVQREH
# assay.explanation: Inhibitory activity against rat hepatic squalene synthase
pIC50: −log10 of the molar value.
Criterion: pIC50 meeting or surpassing 5. Met: YES. Not met: NO.

Prompt line: Check if pIC50 >= 5 (inclusive). Item: C[N+](C)(CCCCCCCCCCc1ccccc1)CCCCS(=O)(=O)[O-]
Response line: YES

Prompt line: Check if pIC50 >= 5 (inclusive). Item: C[N+](C)(CCCCc1ccc(-c2ccccc2)cc1)CCCCS(=O)(=O)[O-]
Response line: NO

Prompt line: Check if pIC50 >= 5 (inclusive). Item: C[N+](C)(CCCCCCCCCc1ccccc1)CCCCS(=O)(=O)[O-]
Response line: YES
